Values from patent US20190248902A1

target-or-test-system: T1, Soluble ASGR-1 (human, UniProt P07306 62-291, biotinylated)
T1 construct: Soluble recombinant protein; also called recombinant, soluble ASGR-1 biotinylated protein
T1 sequence: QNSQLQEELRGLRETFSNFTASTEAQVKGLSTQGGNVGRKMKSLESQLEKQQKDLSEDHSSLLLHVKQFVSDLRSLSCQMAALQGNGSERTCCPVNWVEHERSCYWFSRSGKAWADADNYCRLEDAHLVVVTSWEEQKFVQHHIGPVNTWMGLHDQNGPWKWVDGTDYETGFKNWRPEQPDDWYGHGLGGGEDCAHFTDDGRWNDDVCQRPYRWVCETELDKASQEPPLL
test-summary: limited antigen binding assay; biotinylated soluble ASGR-1 coated at 2.5 ng/mL on LumAvidin beads, FACS
Known FACS Geomean of a selection of binders
I only need the number, in FACS Geomean, no unit after it.

Solved cases below.
[
  {
    "binder": "56E5 (antibody, V domains shown, Tested as hybridoma supernatant at normalized concentration) VH: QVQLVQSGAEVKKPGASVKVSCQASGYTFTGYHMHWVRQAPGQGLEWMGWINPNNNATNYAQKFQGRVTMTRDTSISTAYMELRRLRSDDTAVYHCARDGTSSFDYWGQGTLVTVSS VL: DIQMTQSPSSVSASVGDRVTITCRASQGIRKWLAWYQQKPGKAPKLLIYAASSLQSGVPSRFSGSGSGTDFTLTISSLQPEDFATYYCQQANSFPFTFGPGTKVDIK",
    "FACS Geomean / FACS Geomean": 22600
  },
  {
    "binder": "198G3 (antibody, V domains shown, Tested as hybridoma supernatant at normalized concentration) VH: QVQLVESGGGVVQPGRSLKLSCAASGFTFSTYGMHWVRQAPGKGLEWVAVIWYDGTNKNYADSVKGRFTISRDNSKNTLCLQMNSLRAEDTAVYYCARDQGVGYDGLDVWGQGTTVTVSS VL: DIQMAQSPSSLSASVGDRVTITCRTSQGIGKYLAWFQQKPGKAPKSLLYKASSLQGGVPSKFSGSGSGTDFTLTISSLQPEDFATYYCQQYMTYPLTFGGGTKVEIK",
    "FACS Geomean / FACS Geomean": 26000
  },
  {
    "binder": "202A3 (antibody, V domains shown, Tested as hybridoma supernatant at normalized concentration) VH: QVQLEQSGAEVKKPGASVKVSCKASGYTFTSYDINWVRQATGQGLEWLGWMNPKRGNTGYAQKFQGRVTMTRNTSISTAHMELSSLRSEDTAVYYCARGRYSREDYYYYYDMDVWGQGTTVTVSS VL: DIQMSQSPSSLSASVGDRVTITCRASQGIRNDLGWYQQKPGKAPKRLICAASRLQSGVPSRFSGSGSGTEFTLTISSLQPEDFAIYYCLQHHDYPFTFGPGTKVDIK",
    "FACS Geomean / FACS Geomean": 2150
  }
]

Moving on to another binder below.
Give its FACS Geomean value. Item: 22G5 (antibody, V domains shown, Tested as hybridoma supernatant at normalized concentration) VH: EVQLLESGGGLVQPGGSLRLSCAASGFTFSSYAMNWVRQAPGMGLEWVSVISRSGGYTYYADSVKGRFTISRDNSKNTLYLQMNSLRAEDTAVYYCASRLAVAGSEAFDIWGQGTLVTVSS VL: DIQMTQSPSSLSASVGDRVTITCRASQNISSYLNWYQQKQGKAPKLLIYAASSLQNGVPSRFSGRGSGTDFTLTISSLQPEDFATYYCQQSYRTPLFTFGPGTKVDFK
1080
